Measured Emax, listed per entry.
Target: human GPR119 (hGPR119) (Homo sapiens, UniProt Q8TDV5)
Construct: expressed in transfected cells
Sequence (Q8TDV5 whole entry): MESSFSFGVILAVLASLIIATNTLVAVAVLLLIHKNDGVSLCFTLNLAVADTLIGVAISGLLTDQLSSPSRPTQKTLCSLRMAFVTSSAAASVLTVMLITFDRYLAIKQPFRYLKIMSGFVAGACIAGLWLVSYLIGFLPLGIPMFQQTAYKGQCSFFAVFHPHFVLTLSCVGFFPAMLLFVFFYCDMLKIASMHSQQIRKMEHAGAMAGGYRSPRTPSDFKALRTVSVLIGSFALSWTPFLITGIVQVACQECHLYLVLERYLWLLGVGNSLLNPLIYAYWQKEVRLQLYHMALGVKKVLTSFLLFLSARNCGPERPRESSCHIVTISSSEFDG
Assay: cAMP accumulation assay (Cisbio cAMP Gs dynamic HTRF kit) in CHO-K1 cells stably expressing human GPR119
Type: cell-based
Details: 1 h, % activity normalized to Max and Min controls, 4-parameter fit
Procedure: CHO-K1 cells stably expressing human GPR119 (hGPR119) were prepared by transfection of a GPR119-carrying plasmid using Lipofectamine 2000 (following manufacturer instructions). […] Assay-ready frozen (ARF) cells were prepared and used throughout the study. […] RT-FRET was measured using a ClarioSTAR plate reader, calculating the ratio between emissions at 665 nm and 620 nm (HTRF ratio). […] EC50 and Max activity values were determined using a standard 4-parameter fit.

Incoming: Look up Emax: `O=C(CCCCS(=O)(=O)O)N1C[C@H]2C[C@@H]1CN2C(=O)Cc1ccc(OCCCC2CCN(c3ncc(Cl)cn3)CC2)cc1F`
Outgoing: 100 to 130%

Incoming: Look up Emax: `CCCc1cnc(N2CCC(CCCOc3ccc(CC(=O)N4CCN(C[C@H](O)[C@@H](O)[C@H](O)[C@H](O)CO)CC4)c(F)c3)CC2)nc1`
Outgoing: 100 to 130%

Incoming: Look up Emax: `CCOc1cnc(N2CCC(CCCOc3ccc(CC(=O)N4CCN(C[C@H](O)[C@@H](O)[C@H](O)[C@H](O)CO)CC4)c(F)c3)CC2)nc1`
Outgoing: 100 to 130%

Incoming: Look up Emax: O=C(Cc1ccc(OCCCC2CCN(c3ncc(Cl)cn3)CC2)cc1F)N1CC2(C1)OCC2NC[C@H](O)[C@H](O)[C@H](O)CO (stereo partly drawn)
Outgoing: 100 to 130%

Incoming: Look up Emax: `CCc1cnc(N2CCC(CCCOc3cc(F)c(CC(=O)N4CCN(C[C@H](O)[C@@H](O)[C@H](O)[C@H](O)CO)CC4)c(F)c3)CC2)nc1`
Outgoing: 100 to 130%

Incoming: Look up Emax: `O=C(Cc1ccc(OCCCC2CCN(c3ncc(Cl)cn3)CC2)cc1F)N1CCC2(CC1)CCN2C[C@H](O)[C@H](O)[C@H](O)CO`
Outgoing: 100 to 130%

###

target: human GPR119 (hGPR119) (Homo sapiens, UniProt Q8TDV5); assay: cAMP accumulation assay (Cisbio cAMP Gs dynamic HTRF kit) in CHO-K1 cells stably expressing human GPR119; settings: 60 minutes at 37° C., 4-parameter fit
quantity.name: EC50

Some solved cases for reference:
molecule: O=C(Cc1ccc(OCCCC2CCN(c3ncc(Cl)cn3)CC2)cc1F)N1CCC2(CCN2C(=O)CCCCS(=O)(=O)O)C1 (stereo not drawn)
EC50: ≤ 100 nM
--
molecule: O=C(Cc1ccc(OCCCC2CCN(c3ncc(Cl)cn3)CC2)cc1F)N1CC2CC(C1)N2C[C@H](O)[C@H](O)[C@H](O)CO
EC50: ≤ 100 nM

Incoming: Look up EC50: `O=C(Cc1ccc(OCCCC2CCN(c3ncc(Cl)cn3)CC2)cc1F)N1C[C@H]2CCN(C(=O)CCCCS(=O)(=O)O)[C@H]2C1`
Outgoing: ≤ 100 nM

###

target: human GPR119 (hGPR119) (Homo sapiens); construct: expressed in transfected cells; assay: cAMP accumulation assay (Cisbio cAMP Gs dynamic HTRF kit) in CHO-K1 cells stably expressing human GPR119; format: cell-based; settings: 1 h, % activity normalized to Max and Min controls, 4-parameter fit
quantity.name: Emax

Some solved cases for reference:
compound: O=C(Cc1ccc(OCCCC2CCN(c3ncc(Cl)cn3)CC2)cc1F)N1CC2(C1)N(C[C@H](O)[C@@H](O)[C@H](O)[C@H](O)CO)CC2(F)F
Emax: ≥ 130%

compound: O=C(Cc1ccc(OCCCC2CCN(c3ncc(Cl)cn3)CC2)cc1F)N1CCC12CN(C[C@H](O)[C@@H](O)[C@H](O)[C@H](O)CO)C2
Emax: 100 to 130%

compound: CC1(CCCCOc2ccc(CC(=O)N3CCN(C[C@H](O)[C@@H](O)[C@H](O)[C@H](O)CO)CC3)c(F)c2)CCN(c2ncc(Cl)cn2)CC1
Emax: 100 to 130%

Incoming: Look up Emax: `O=C(Cc1ccc(OCCCC2CCN(c3ncc(Cl)cn3)CC2)cc1F)N1C[C@H]2CN(C[C@H](O)[C@@H](O)[C@H](O)[C@H](O)CO)C[C@H]2C1`
Outgoing: 100 to 130%

Incoming: Look up Emax: `O=C(Cc1ccc(OCCCC2CCN(c3ncc(Cl)cn3)CC2)cn1)N1CCN(C[C@H](O)[C@@H](O)[C@H](O)[C@H](O)CO)CC1`
Outgoing: 100 to 130%

Incoming: Look up Emax: `O=C(Cc1ccc(OCCCC2CCN(c3ncc(Cl)cn3)CC2)cc1F)N1C[C@@H]2CCN(C[C@H](O)[C@H](O)[C@H](O)CO)[C@@H]2C1`
Outgoing: ≥ 130%
